binders and their reported EC50
experimental_target: T1, CD47 protein
T1 construct: also called CD47 (ELISA antigen); not shown: The carrier of the coated recombinant protein (an Fc tag as in CD47-Fc, or a His tag as in CD47-His)
assay_notes: ELISA on CD47 protein; x axis is log10 of mAb (ng/ml), unit taken from the axis
Put your answer as a value accompanied by its unit after it.

| binder | measurement |
| --- | --- |
| 98E2E12 (antibody, V domains shown, purified murine anti-CD47 hybridoma antibody; same VH and VL as 98E2E7; also called 04-98E2E12) VH: QVQLQQSGPQLVRPGASVKISCKASGYSFTNHWMHWMKQRPGQGLEWIGMIDPSDSETRLNQQFKDKATLTVDKSSSTAYMQLSSPTSEDSAVFYCARLGRYYFDYWGQGTTLTVSS VL: NIVMTQSPKSMSVSVGERVTLSCRASDIVGTYVSWYQQKPEQSPKLLIYGASNRYTGVPDRFTGSRSATDFSLTISNVQAEDLADYLCGQSYDSPYTFGGGTKLEIK | 2.59 ng/mL |
| 98G5F6 (antibody, V domains shown, purified murine anti-CD47 hybridoma antibody; same VH and VL as 98G5F11; also called 05-98G5F6) VH: QVQLQQSGPQLVRPGASVKISCKASGYSFTNYWMHWMKQRPGQGLEWIGMIDPSDSETRLNQQFKDKATLTVDKSSSTAYMQLSSPTSEDSAVYYCARLGRYYFDFWGQGTTLTVSS VL: NIVMTQSPKSMSVSVGERVTLSCRASEIVGTYVSWYQQKPEQSPKLLIYGASNRFTGVPDRFTGSRSATDFSLTISNVQAEDLADYLCGQSYDSPYTFGGGTKLEIK | 3.53 ng/mL |
| 98E2E7 (antibody, V domains shown, purified murine anti-CD47 hybridoma antibody; same VH and VL as 98E2E12; also called 03-98E2E7) VH: QVQLQQSGPQLVRPGASVKISCKASGYSFTNHWMHWMKQRPGQGLEWIGMIDPSDSETRLNQQFKDKATLTVDKSSSTAYMQLSSPTSEDSAVFYCARLGRYYFDYWGQGTTLTVSS VL: NIVMTQSPKSMSVSVGERVTLSCRASDIVGTYVSWYQQKPEQSPKLLIYGASNRYTGVPDRFTGSRSATDFSLTISNVQAEDLADYLCGQSYDSPYTFGGGTKLEIK | 3.78 ng/mL |
| 108C10F5 (antibody, V domains shown, purified murine anti-CD47 hybridoma antibody; separate subclone with its own curves; same VH and VL as 108C10A6; also called 09-108C10F5) VH: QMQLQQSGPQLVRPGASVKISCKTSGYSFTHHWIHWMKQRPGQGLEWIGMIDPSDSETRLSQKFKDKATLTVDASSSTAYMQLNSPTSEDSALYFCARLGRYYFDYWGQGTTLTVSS VL: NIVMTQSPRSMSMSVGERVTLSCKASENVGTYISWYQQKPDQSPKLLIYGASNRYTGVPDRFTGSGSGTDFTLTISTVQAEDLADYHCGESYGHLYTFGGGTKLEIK | 23.4 ng/mL |

The record that follows has no EC50 shown yet.
## Input EC50 lookup needed for 112E5H7 (antibody, V domains shown, purified murine anti-CD47 hybridoma antibody; same VH and VL as 112E5D9 and 112E5F2; also called 12-112E5H7) VH: QVQLQQSGPQLVRPGASVKISCKASGYSFTNNWMHWMKQRPGQGLEWIGMIDPSDSETRLNQQFRDKATLTVDKTSSTAYMQLSSPTSEDSAVYYCARLGRYYFDYWGLGTTLTVSS VL: NIVMTQSPKSMSVSVGERVTMNCRASEIVGTYVSWYQQKPEQSPKLLIYGAFNRYTGVPDRFTGSRSGTDFSLNISNVQAEDLADYLCGQSYDSPYTFGGGTKLEIK , thanks.
## Output 9.81 ng/mL
